System: rodent lifetime carcinogenesis bioassay, tumor incidence TD50
Assay: carcinogenic potency in animals, long-term in vivo studies, CPDB compilation (AID 1745844)
Details: rat; strain Fischer 344; males; in feed; site: urinary bladder; lesion: sarcoma; dosed 27 weeks; study length 104 weeks
readoutName: TD50

Requested field: TD50. Item: `COc1ccccc1[N+](=O)[O-]`
292 mg/kg/day

---

Tested on: rodent lifetime carcinogenesis bioassay, tumor incidence TD50
Assay: carcinogenic potency in animals, long-term in vivo studies, CPDB compilation (AID 1745844)
Conditions: mouse; strain B6C3F1; females; in drinking water; site: all sites + liver + thyroid gland; lesion: malignant lymphoma, histiocytic type + malignant lymphoma, mixed type + malignant lymphoma, undifferentiated type + malignant; dosed 103 weeks; study length 104 weeks
readoutName: TD50 (mg/kg/day)
Hi! Could you send only the number? It should be in mg/kg/day, unit omitted.

Can you look up TD50 on rodent lifetime carcinogenesis bioassay, tumor incidence TD50 for `Nc1ccc(Cc2ccc(N)cc2)cc1` ?
32.6

---

Test system: rodent lifetime carcinogenesis bioassay, tumor incidence TD50
Assay: carcinogenic potency in animals, long-term in vivo studies, CPDB compilation (AID 1745844)
Conditions: rat; strain Fischer 344; males; in drinking water; site: pharynx + tongue; lesion: squamous-cell carcinoma; dosed 58 weeks; study length 60 weeks
readoutName: TD50
# number then unit; no other words

Requested field: TD50. Item: `Cc1cc(-c2ccc(N)c(C)c2)ccc1N`
26.7 mg/kg/day

---

Tested on: rodent lifetime carcinogenesis bioassay, tumor incidence TD50
Assay: carcinogenic potency in animals, long-term in vivo studies, CPDB compilation (AID 1745844)
Settings: mouse; strain B6C3F1; females; inhaled; site: ovary; lesion: granulosa-cell tumor, benign + granulosa-cell tumor, bilateral; dosed 83 weeks; study length 104 weeks
readoutName: TD50
# number then unit; no other words

Requested field: TD50. Item: `C=CC=C`
98 mg/kg/day

---

Test system: rodent lifetime carcinogenesis bioassay, tumor incidence TD50
Experiment: carcinogenic potency in animals, long-term in vivo studies, CPDB compilation (AID 1745844)
Details: mouse; strain Swiss albino; males; in feed; site: duodenum; lesion: several types; types named in the paper; dosed 124 weeks; study length 124 weeks
readoutName: TD50
# number then unit; no other words

Requested field: TD50. Item: `COc1cc(CNC(=O)CCCC/C=C/C(C)C)ccc1O`
404 mg/kg/day

---

Test system: rodent lifetime carcinogenesis bioassay, tumor incidence TD50
Experiment: carcinogenic potency in animals, long-term in vivo studies, CPDB compilation (AID 1745844)
Settings: mouse; strain B6C3F1; females; in drinking water; site: forestomach; lesion: squamous-cell papilloma; dosed 79 weeks; study length 79 weeks
readoutName: TD50

Requested field: TD50. Item: `OCCBr`
69.7 mg/kg/day

---

System: rodent lifetime carcinogenesis bioassay, tumor incidence TD50
Test: carcinogenic potency in animals, long-term in vivo studies, CPDB compilation (AID 1745844)
Details: mouse; strain Cpb:Swiss random; females; in feed; site: lung; lesion: alveolar-cell tumor; dosed 104 weeks; study length 104 weeks
Calls of active or inactive are those of the source. No rule for the calls is given here.
readoutName: TD50

Requested field: TD50. Item: OCC(O)[C@@H](O)[C@H](O)[C@H](O)CO[C@H]1O[C@H](CO)[C@@H](O)[C@H](O)[C@H]1O (stereo partly specified)
92600 mg/kg/day (inactive)

---

Tested on: rodent lifetime carcinogenesis bioassay, tumor incidence TD50
Experiment: carcinogenic potency in animals, long-term in vivo studies, CPDB compilation (AID 1745844)
Conditions: hamster; strain Syrian Golden; both sexes; by gavage; site: esophagus; lesion: epidermoid carcinoma; dosed 27 weeks; study length 73 weeks
readoutName: TD50

Requested field: TD50. Item: `CCOC(=O)N(C)N=O`
0.127 mg/kg/day

---

Tested on: rodent lifetime carcinogenesis bioassay, tumor incidence TD50
Test: carcinogenic potency in animals, long-term in vivo studies, CPDB compilation (AID 1745844)
Settings: rat; strain Fischer 344; males; in drinking water; site: palate; lesion: squamous-cell papilloma; dosed 88 weeks; study length 92 weeks
readoutName: TD50 (mg/kg/day)
Hi! Could you send only the number? It should be in mg/kg/day, unit omitted.

Requested field: TD50. Item: `COc1cc(-c2ccc(N)c(OC)c2)ccc1N`
8.35

---

Tested on: rodent lifetime carcinogenesis bioassay, tumor incidence TD50
Test: carcinogenic potency in animals, long-term in vivo studies, CPDB compilation (AID 1745844)
Conditions: rat; strain Wistar; males; inhaled; site: lung; lesion: adenocarcinoma; dosed 60 weeks; study length 134 weeks
readoutName: TD50 (mg/kg/day)
Hi! Could you send only the number? It should be in mg/kg/day, unit omitted.

Requested field: TD50. Item: `O=S(=O)([O-])[O-].[Cd+2]`
0.0537

---

Test system: rodent lifetime carcinogenesis bioassay, tumor incidence TD50
Test: carcinogenic potency in animals, long-term in vivo studies, CPDB compilation (AID 1745844)
Details: rat; strain Fischer 344; females; in drinking water; site: pituitary gland; lesion: adenoma + pars distalis adenoma + pars distalis carcinoma; dosed 91 weeks; study length 93 weeks
readoutName: TD50 (mg/kg/day)
Hi! Could you send only the number? It should be in mg/kg/day, unit omitted.

Requested field: TD50. Item: `COc1cc(-c2ccc(N)c(OC)c2)ccc1N`
9.4

---

Test system: rodent lifetime carcinogenesis bioassay, tumor incidence TD50
Test: carcinogenic potency in animals, long-term in vivo studies, CPDB compilation (AID 1745844)
Conditions: rat; strain ACI; males; in drinking water; site: liver; lesion: several types; types named in the paper; dosed 58 weeks; study length 58 weeks
readoutName: TD50

Requested field: TD50. Item: `C[C@@H]1C[C@]2(O[C@@H]2C)C(=O)O[C@@H]2CCN(C)C/C=C(/COC(=O)[C@]1(C)O)C2=O`
0.662 mg/kg/day

---

System: rodent lifetime carcinogenesis bioassay, tumor incidence TD50
Assay: carcinogenic potency in animals, long-term in vivo studies, CPDB compilation (AID 1745844)
Details: rat; strain Fischer 344; females; in drinking water; site: any site (literature study); lesion: several types; types named in the paper; dosed 104 weeks; study length 104 weeks
Calls of active or inactive are those of the source. No rule for the calls is given here.
readoutName: TD50

O=NO : 74400 mg/kg/day (inactive)

Can you look up TD50 on rodent lifetime carcinogenesis bioassay, tumor incidence TD50 for `c1ccncc1` ?
32.9 mg/kg/day

---

Tested on: rodent lifetime carcinogenesis bioassay, tumor incidence TD50
Assay: carcinogenic potency in animals, long-term in vivo studies, CPDB compilation (AID 1745844)
Settings: mouse; strain Swiss albino; females; by gavage; site: lung; lesion: adenocarcinoma; dosed 53 weeks; study length 127 weeks
readoutName: TD50 (mg/kg/day)
Hi! Could you send only the number? It should be in mg/kg/day, unit omitted.

Requested field: TD50. Item: `CC(C)C/C=N/N(C)C=O`
8.7

---

Test system: rodent lifetime carcinogenesis bioassay, tumor incidence TD50
Assay: carcinogenic potency in animals, long-term in vivo studies, CPDB compilation (AID 1745844)
Details: mouse; strain B6C3F1; males; in feed; site: liver; lesion: hepatocellular adenoma; dosed 103 weeks; study length 111 weeks
readoutName: TD50

Requested field: TD50. Item: `Nc1cc(Cl)c(N)c(Cl)c1`
933 mg/kg/day

---

System: rodent lifetime carcinogenesis bioassay, tumor incidence TD50
Experiment: carcinogenic potency in animals, long-term in vivo studies, CPDB compilation (AID 1745844)
Conditions: rat; strain Fischer 344; males; in drinking water; site: skin; lesion: basal-cell adenoma + basal-cell carcinoma + sebaceous adenoma; dosed 97 weeks; study length 97 weeks
readoutName: TD50 (mg/kg/day)
Hi! Could you send only the number? It should be in mg/kg/day, unit omitted.

Requested field: TD50. Item: `COc1cc(-c2ccc(N=Nc3c(S(=O)(=O)O)cc4cc(S(=O)(=O)O)cc(N)c4c3O)c(OC)c2)ccc1N=Nc1c(S(=O)(=O)O)cc2cc(S(=O)(=O)O)cc(N)c2c1O`
18.1

---

Tested on: rodent lifetime carcinogenesis bioassay, tumor incidence TD50
Assay: carcinogenic potency in animals, long-term in vivo studies, CPDB compilation (AID 1745844)
Conditions: rat; strain Charles River CD (Sprague-Dawley); females; i.p.; site: mammary gland; lesion: adenocarcinoma; dosed 26 weeks; study length 78 weeks
readoutName: TD50

Requested field: TD50. Item: `O[C@@H]([C@H](O)[C@H](O)CBr)[C@H](O)CBr`
24.9 mg/kg/day

---

Tested on: rodent lifetime carcinogenesis bioassay, tumor incidence TD50
Assay: carcinogenic potency in animals, long-term in vivo studies, CPDB compilation (AID 1745844)
Conditions: mouse; strain CFW; males; in feed; site: lung; lesion: adenoma; dosed 80 weeks; study length 80 weeks
Activity calls are given as the source filed them. No rule for the calls is given here.
readoutName: TD50

Requested field: TD50. Item: `CC(=O)Nc1ccc(S(=O)(=O)O)c2cc(S(=O)(=O)O)c(N=Nc3ccc(N=Nc4ccc(S(=O)(=O)O)cc4)c4ccc(S(=O)(=O)O)cc34)c(O)c12`
3660 mg/kg/day (inactive)

Reference for the values: PubChem BioAssay AID1745844
